- Method: NCI Yeast Anticancer Drug Screen. Data for the cln2 rad14 strain (AID 165);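 also: 0% = growth equal to vehicle treated cultures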
- Condition: S. cerevisiae cln2 rad14 strain, at 50.0 µM (retest, dose inferred, filed as 5.0), hits give high values
Compounds without any hit were thinned out: in the full panel of roughly 79,000, 15% have a hit.
Quantity Kind: growth inhibition (%)
Express your answer in %, writing the number without its unit.

QUERY: Report growth inhibition for Brc1ccc(N=NN2CCCC2)cc1 please.
RESULT: 36

QUERY: Report growth inhibition for CCC(=O)OC1=C(Br)C(=O)c2ccccc2C1=O please.
RESULT: 68

QUERY: Report growth inhibition for O=C1C(Sc2ccc3ccccc3c2)=C(Sc2ccc3ccccc3c2)C(=O)c2ccccc21 please.
RESULT: 89

QUERY: Report growth inhibition for O=[N+]([O-])c1ccc(CO)o1 please.
RESULT: -2

QUERY: Report growth inhibition for C[C@]12C[C@H](c3ccccc3)Nc3ccccc3N1C(c1ccccc1)=NO2 please.
RESULT: 74

QUERY: Report growth inhibition for N#CSc1ccc(Nc2ccc(SC#N)cc2)cc1 please.
RESULT: 98

QUERY: Report growth inhibition for CC(=O)C1(O)C(Br)CC2C3CC=C4CC(O)CCC4(C)C3CCC21C (stereo unspecified) please.
RESULT: 98

QUERY: Report growth inhibition for C[C@]12C[C@@H](c3ccccc3)Nc3ccccc3N1C(c1ccccc1)=NO2 please.
RESULT: 55

QUERY: Report growth inhibition for COC(=O)/C(C#N)=C/c1cc(OC)c(O)cc1Br please.
RESULT: 43

QUERY: Report growth inhibition for CC(=O)Oc1ccc2ccccc2c1CN(Cc1c(OC(C)=O)ccc2ccccc12)C(C)=O please.
RESULT: 88

QUERY: Report growth inhibition for CSC(=S)SC(SC)S(C)(=O)=O (stereo unspecified) please.
RESULT: 2

QUERY: Report growth inhibition for N#CCCN(C(=S)Nc1ccc(Cl)c(Cl)c1)C1CCCCC1 please.
RESULT: 83

QUERY: Report growth inhibition for O=C(Nc1ccc(Cl)cc1)c1cccc([N+](=O)[O-])c1O please.
RESULT: 34

QUERY: Report growth inhibition for O=C(O)c1ccc2c(c1)CCCC2 please.
RESULT: -61

QUERY: Report growth inhibition for COc1ccc(/C(=N/NC(N)=O)C(c2ccc(OC)cc2)C2C(=O)Oc3ccccc32)cc1 (stereo unspecified) please.
RESULT: 77

QUERY: Report growth inhibition for CC1(C)OC(=O)C(=NNc2ccccc2[N+](=O)[O-])C(=O)O1 please.
RESULT: 12

====

- Method: NCI Yeast Anticancer Drug Screen. Data for the cln2 rad14 strain (AID 165);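 also: 0% = growth equal to vehicle treated cultures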
- Condition: S. cerevisiae cln2 rad14 strain, at 50.0 µM (retest, dose inferred, filed as 5.0)
About 79,000 compounds went through this panel and 15% of them were active in at least one assay; those are over-represented in the sample as a whole. The source made the active and inactive calls. Cut-off read from the data, not from the text of the source: active = growth inhibition above about 70%; inactive = the rest.
The categories you may choose from are T (active), F (inactive)

QUERY: Hi, sorry to bother you, what did the test record for CCOc1ccccc1C(=O)OCc1ccccc1 ?
RESULT: F

QUERY: Hi, sorry to bother you, what did the test record for O=c1c(-c2ccccc2)coc2cc(O)ccc12 ?
RESULT: F

QUERY: Hi, sorry to bother you, what did the test record for CCOC(=O)C(Br)C(Br)c1cccc(Cl)c1 (centres undefined) ?
RESULT: T

QUERY: Hi, sorry to bother you, what did the test record for COC1=CC(=O)C(C#CCOCc2ccccc2)=CC1=O ?
RESULT: T
